Listed binders paired with reported MFI pH 6.0/MFI pH 7.4
target: T1, human CD3 on CD3+ Jurkat cells (human, UniProt P07766 23-207); assay: flow cytometry on CD3+ Jurkat cells, ratio of MFI at pH 6.0 to pH 7.4
T1 construct: whole, on cells; Native CD3 complex on cells; the other CD3 chains are not specified for this assay; also called Human CD3+ Jurkat
T1 sequence (P07766 23-207): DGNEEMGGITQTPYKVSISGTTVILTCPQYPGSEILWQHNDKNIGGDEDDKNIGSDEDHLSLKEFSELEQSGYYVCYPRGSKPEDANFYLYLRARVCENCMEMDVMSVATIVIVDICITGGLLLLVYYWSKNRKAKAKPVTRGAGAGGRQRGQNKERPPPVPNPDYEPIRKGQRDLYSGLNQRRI
# print the numeric value only

binder	MFI pH 6.0/MFI pH 7.4
SAD10319_P03_E08 (ADI-48637) (antibody, V domains shown, IgG; also called Ab21) VH: QVQLVQSGAEVKKPGASVKVSCKASGYTFNDYAMHWVRQAPGQRLEWMGYINGTGATVYSQKFQGRVTITRDTSASTAYMELSSLRSEDTAVYYCARDAYHHYFYDVWSQGTLVTVSS VL: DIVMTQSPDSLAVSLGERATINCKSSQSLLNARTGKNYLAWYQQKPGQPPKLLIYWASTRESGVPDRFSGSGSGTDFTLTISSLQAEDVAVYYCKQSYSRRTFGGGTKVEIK	3.3

Let us examine a further case.
For record SAD10318_P03_D08 (ADI-48604) (antibody, V domains shown, IgG; also called Ab198) VH: QVQLVQSGAEVKKPGASVKVSCKASGFNIKDYYMHWVRQAPGQRLEWMGWIDLENANTIYDAKFQGRVTITRDTAASTAYMELSSLRSEDTAVYYCARDHYHRYFYDHWGQGTLVTVSS VL: DIVMTQSPDSLAVSLGERATINCKSSQSLLNAHTGKNHLAWYQQKPGQPPKLLIYWASTRESGVPDRFSGSGSGTDFTLTISSLQAEDVAVYYCKQSYSRRTFGGGTKVEIK the listed MFI pH 6.0/MFI pH 7.4 is 4.7
